Listed here: items and their measured CRF1R Emax %.
Biological target: CRF1R; note: reference of the scale not given here
Assay: cell-based or functional assay
Ends that are not written are not given here.
Reported Property: CRF1R Emax % (%)

- Binder: "ZGPPISIDLPTWLLRKMIEIEKQEKEKQQAANNARLLARI (C-terminal amide) [SEQ ID NO 292]"
  Reported Property: "CRF1R Emax %"
  Observed: 7
- Binder: "ZGPPISIDLPIILLRKVIEIEKQEKEKQQAANNARLLARI (C-terminal amide) [SEQ ID NO 295]"
  Reported Property: "CRF1R Emax %"
  Observed: 5.3
- Binder: "DNPSLSIDLPLFLLRTLLELEKTQSQRERAEQNAIIFASV-NH2 [SEQ ID NO 343]"
  Reported Property: "CRF1R Emax %"
  Observed: 62.5
- Binder: "NDDPPISIDLPQYLLRNMIEMARIENEREQAGLNAKYLAEV-NH2 [SEQ ID NO 265]"
  Reported Property: "CRF1R Emax %"
  Observed: 9.3
- Binder: "ZGPPISIDLPFQLLRLLIEIEKQEKEKQQAANNALLLATI (C-terminal amide) [SEQ ID NO 360]"
  Reported Property: "CRF1R Emax %"
  Observed: 100
- Binder: "ZGPPISIDLPFFLLRKMIEIEKQEKEKQQAANNALLLATI (C-terminal amide) [SEQ ID NO 319]"
  Reported Property: "CRF1R Emax %"
  Observed: 88.3
- Binder: "IVLSLDVSIGLLQILLEQARARAAREQATTNARILARV-NH2 [SEQ ID NO 370]"
  Reported Property: "CRF1R Emax %"
  Observed: 33
- Binder: "DNPSLSIDLPLLLLRTLLELEKTQSQRERAEQNANIFANV-NH2 [SEQ ID NO 326]"
  Reported Property: "CRF1R Emax %"
  Observed: 30.1
- Binder: "ZGPPISIDLPYQLLRKVIEIEKQEKEKQQAANNARLLARI (C-terminal amide) [SEQ ID NO 286]"
  Reported Property: "CRF1R Emax %"
  Observed: 19.2
- Binder: "ZGPPISIDLPLQLLRKMIEIEKQEKEKQQATTNARLLDTV (C-terminal amide) [SEQ ID NO 246]"
  Reported Property: "CRF1R Emax %"
  Observed: 33
- Binder: "ZGPPISIDLPVALLRKMIEIEKQEKEKQQAANNRLLLDTI (C-terminal amide) [SEQ ID NO 305]"
  Reported Property: "CRF1R Emax %"
  Observed: 59.5
- Binder: "ZGPPISIDLPLHLLRKMIEIEKQEKEKQQATTNARLLDTV (C-terminal amide) [SEQ ID NO 238]"
  Reported Property: "CRF1R Emax %"
  Observed: 88
